system: SF-295; assay: NCI tumour cell line growth inhibition, 48 h
Activity calls are given as the source filed them. No stated cut-off is given here; in the data, active = GI50 up to about 1.1 µM and inactive = higher.
# GI50 per entry

[
  {
    "molecule": "COC1=CC(=O)C2C(C1=O)C(c1ccc(Cl)cc1)[C@@H]2C (some centres undefined)",
    "GI50": "93.1 µM (inactive)"
  },
  {
    "molecule": "COc1ccc(C2=C(N)c3c(OC)cccc3C2=O)cc1",
    "GI50": "86.1 µM (inactive)"
  },
  {
    "molecule": "C[C@@H](O)CCC(=O)c1ccoc1",
    "GI50": "> 100 µM (inactive)"
  },
  {
    "molecule": "N#Cc1c2c(c(Nc3cccc(C(F)(F)F)c3)n3c1nc1ccccc13)CCC2",
    "GI50": "> 100 µM (inactive)"
  },
  {
    "molecule": "O=C1C(N2CCCC2)=CC(=O)c2c(O)c(N3CCCC3)c(Cl)c(O)c21",
    "GI50": "> 10 µM (inactive)"
  },
  {
    "molecule": "O=C(O)Cc1c(-c2ccc([N+](=O)[O-])cc2)c(=O)oc2cc(O)ccc12",
    "GI50": "16.1 µM (inactive)"
  },
  {
    "molecule": "CC(=O)OC1[C@H](OC(C)=O)C2=C(C)[C@@H](OC(C)=O)C[C@@]2(C(C)(C)O)[C@@H](OC(C)=O)[C@H]2[C@@]1(C)[C@@H](OC(C)=O)CC(OC(C)=O)[C@]21CO1 (some centres undefined)",
    "GI50": "> 100 µM (inactive)"
  },
  {
    "molecule": "Cc1cc(=O)c2c(O)cc3c(c2o1)CC=C(COC1OC(COC2OC(CO)C(O)C(O)C2O)C(O)C(O)C1O)CO3 (centres undefined)",
    "GI50": "> 100 µM (inactive)"
  },
  {
    "molecule": "CCCC12Cc3c(OC)ccc(OC)c3CC(Cc3c(OC)ccc(OC)c31)C2=O (centres undefined)",
    "GI50": "> 100 µM (inactive)"
  },
  {
    "molecule": "COc1ccc2c(c1)CN1C(=N2)CSC1c1c(Cl)cccc1[N+](=O)[O-] (centres undefined)",
    "GI50": "21.8 µM (inactive)"
  },
  {
    "molecule": "CC1=C(C(=O)NCc2ccccc2)C(/C=C/c2ccccc2)C(C(=O)NCc2ccccc2)=C(C)N1",
    "GI50": "> 100 µM (inactive)"
  },
  {
    "molecule": "O=C(O)CN(CCNC(=O)OCC1c2ccccc2-c2ccccc21)CCNC(=O)OCC1c2ccccc2-c2ccccc21",
    "GI50": "25 µM (inactive)"
  },
  {
    "molecule": "CC1=C/C(=N\\N(C)C)C(C(O)(C(F)(F)F)C(F)(F)F)C(C)(C)C1 (centres undefined)",
    "GI50": "> 100 µM (inactive)"
  },
  {
    "molecule": "COc1cc2cc(C(=O)N3CC(CCl)c4c3cc(N(C)C)c3ccccc43)[nH]c2c(OC)c1OC (centres undefined)",
    "GI50": "< 0.01 µM (active)"
  },
  {
    "molecule": "Cc1ccccc1-n1c(CCl)nc2ccc(Br)cc2c1=O",
    "GI50": "11 µM (inactive)"
  },
  {
    "molecule": "CCP(=O)(CC)C(Cl)Cl",
    "GI50": "> 100 µM (inactive)"
  },
  {
    "molecule": "Cc1cc(S(=O)(=O)Nc2nnc3c4ccccc4cnn23)c(S)cc1Cl",
    "GI50": "47.5 µM (inactive)"
  },
  {
    "molecule": "COc1ccc2nc3cc([N+](=O)[O-])ccc3c(NNc3ccc([N+](=O)[O-])cc3)c2c1",
    "GI50": "22 µM (inactive)"
  },
  {
    "molecule": "CCOC(=O)c1c(N2CCOCC2)[nH]c(=O)c(C(c2c(O)c(C(=O)OCC)c(N3CCOCC3)[nH]c2=O)C(C)C)c1O",
    "GI50": "58.3 µM (inactive)"
  }
]
